Reference for the values: patent US12318403B2

- assayed target: human wild type STING (WT STING) (Homo sapiens, UniProt Q86WV6, H232R)
- Sequence (Q86WV6 whole entry H232R): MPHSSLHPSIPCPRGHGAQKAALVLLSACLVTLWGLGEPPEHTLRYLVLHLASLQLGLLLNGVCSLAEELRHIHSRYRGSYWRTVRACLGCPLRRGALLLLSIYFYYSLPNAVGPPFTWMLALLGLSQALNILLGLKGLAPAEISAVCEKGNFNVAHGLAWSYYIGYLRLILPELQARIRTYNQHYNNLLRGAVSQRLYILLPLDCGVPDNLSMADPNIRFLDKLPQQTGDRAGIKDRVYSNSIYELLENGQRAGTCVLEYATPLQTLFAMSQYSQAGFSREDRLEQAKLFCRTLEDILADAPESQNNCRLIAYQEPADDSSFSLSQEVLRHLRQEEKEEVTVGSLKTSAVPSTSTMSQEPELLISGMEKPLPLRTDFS
- assay notes: Digitonin assay using 293T wtSTING-FL reporter cells
- Assay type: cell-based
- experimental parameters: 293T wtSTING-FL cells; compounds in Digitonin buffer 30 minutes, then 5 hours in medium; ISRE firefly luciferase
pEC50: −log10 of the molar value.
observation type: pEC50

Known results for molecules:
Nc1nc2c(ncn2[C@@H]2O[C@@H]3COP(=O)(S)CO[C@H]4[C@@H](F)[C@H](n5cnc6c(N)ncnc65)O[C@@H]4COP(=O)(S)O[C@@H]2[C@@H]3F)c(=O)[nH]1 (single isomer, unassigned) [Compound 17c] :: 8.15
Nc1nc2c(ncn2[C@@H]2O[C@@H]3COP(=O)(O)O[C@@H]4[C@H](O)[C@@H](COP(=O)(O)O[C@@H]2[C@@H]3O)O[C@H]4n2cnc3c(N)ncnc32)c(=O)[nH]1 [2′2′-cGAMP, reference compound] :: 7.52

[1] Nc1nc2c(ncn2[C@@H]2O[C@@H]3COP(=O)(O)CO[C@H]4[C@@H](F)[C@H](n5cnc6c(N)ncnc65)O[C@@H]4COP(=O)(S)O[C@@H]2[C@@H]3F)c(=O)[nH]1 (single isomer, unassigned) [Compound 11b]
[2] Nc1ncnc2c1ncn2[C@@H]1O[C@@H]2COP(=O)(S)O[C@@H]3[C@H](F)[C@@H](COP(=O)(S)CO[C@H]2[C@H]1F)O[C@H]3n1cnc2c(N)ncnc21 (single isomer, unassigned) [Compound 30a]
Q: Hey, which is lower on measured pEC50, 1 or 2 ? Please reply using the label of the selected record.
Result: 2
